Cited source for all entries: patent US20110046130A1

- study.target: human H3 receptors (Homo sapiens, UniProt Q9Y5N1)
- Sequence (Q9Y5N1 whole entry): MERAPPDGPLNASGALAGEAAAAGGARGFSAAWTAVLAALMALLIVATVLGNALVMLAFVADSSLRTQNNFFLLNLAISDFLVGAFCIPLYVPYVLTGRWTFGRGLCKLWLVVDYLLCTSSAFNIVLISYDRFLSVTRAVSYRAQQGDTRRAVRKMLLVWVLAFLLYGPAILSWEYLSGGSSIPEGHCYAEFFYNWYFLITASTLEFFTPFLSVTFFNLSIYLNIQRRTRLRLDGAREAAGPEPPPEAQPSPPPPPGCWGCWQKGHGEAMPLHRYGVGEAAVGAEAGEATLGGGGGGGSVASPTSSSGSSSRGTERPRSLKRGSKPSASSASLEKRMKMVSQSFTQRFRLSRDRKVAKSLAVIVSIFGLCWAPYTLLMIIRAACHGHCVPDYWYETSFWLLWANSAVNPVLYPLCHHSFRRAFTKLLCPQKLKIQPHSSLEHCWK
- method.notes: cAMP quantification protocol for human H3 receptor testing
- condition.info: inhibition of agonist-induced (100 nM histamine, 10 μM forskolin) decrease of intracellular cAMP; CHO-K1 cell line expressing human H3 receptors; read-out: Potency range (IC50 values)
# IC50 listing for each entry below
observation.type: IC50

compound: O=C1CCC2c3ccc(OC4CCN(C5CCC5)CC4)nc3CCN12 (centres unmarked)
study.target: human H3 receptors (Homo sapiens, UniProt Q9Y5N1)
value.reported: < 100 nM
--
compound: CC(C)N1CCC(Oc2nc3c(cc2C#N)CN(C)CC3)CC1
study.target: human H3 receptors (Homo sapiens, UniProt Q9Y5N1)
value.reported: < 100 nM
--
compound: O=C1CCCC2c3ccc(O[C@H]4CCN(C5CCC5)C4)nc3CCN12 (mixture of isomers)
study.target: human H3 receptors (Homo sapiens, UniProt Q9Y5N1)
value.reported: 500 to 5000 nM
--
compound: O=C1CCCC2c3ccc(OC4CCN(C5CCCCC5)CC4)nc3CCN12 (centres unmarked)
study.target: human H3 receptors (Homo sapiens, UniProt Q9Y5N1)
value.reported: < 100 nM
--
compound: CN1CCc2nc(O[C@H]3CCN(C4CCC4)C3)ccc2C1
study.target: human H3 receptors (Homo sapiens, UniProt Q9Y5N1)
value.reported: 500 to 5000 nM
--
compound: CN1CCc2nc(OC3CCN(C4CCCC4)CC3)ccc2C1
study.target: human H3 receptors (Homo sapiens, UniProt Q9Y5N1)
value.reported: < 100 nM
--
compound: CN1CCc2nc(O[C@H]3CCN(C4CCCC4)C3)ccc2C1
study.target: human H3 receptors (Homo sapiens, UniProt Q9Y5N1)
value.reported: 100 to 500 nM
--
compound: CN1CCC(Oc2ccc3c(n2)CCN(C)C3)CC1
study.target: human H3 receptors (Homo sapiens, UniProt Q9Y5N1)
value.reported: 500 to 5000 nM
